- Test system: Thrips obscuratus
- measurementDescription: Thrips luring activity against male New Zealand Thrips obscuratus (flower thrips) assessed as ratio of thrips in baited traps to unbaited traps during field trapping study
- Assay type: functional
endpoint: Ratio

CCOC(=O)c1ccccc1O [ETHYL SALICYLATE]: 48.5
O=Cc1ccccc1O [SALICYLADEHYDE]: 15.7
COC(=O)c1ccccc1O [METHYL SALICYLATE]: 13.3
COC(=O)c1ccccc1 [METHYL BENZOATE]: 50.5
CC(C)OC(=O)c1ccncc1 [ISOPROPYL ISONICOTINATE]: 0
CC/C=C\CC1=C(C)CCC1=O [CIS-JASMONE]: 24.5
CC(=O)/C=C/C1C(C)=CCCC1(C)C (stereo not drawn) [ALPHA-IONONE]: 0
CCC(=O)c1ccncc1 [ETHYL 4-PYRIDYLKETONE]: 0
CCCCCCOC(=O)c1ccncc1 [ISONICOTINIC ACID HEXYL ESTER]: 0
CCOC(=O)c1ccnc(Cl)c1 [ETHYL-2-CHLOROPYRIDINE-4-CARBOXYLATE]: 19.3
CCOC(=O)c1ccncc1 [ETHYL ISONICOTINATE]: 28.5
O=Cc1ccncc1 [4-FORMYLPYRIDINE]: 4.9
N#Cc1ccncc1 [ISONICOTINONITRILE]: 19.9
CC/C=C\CC1C(=O)CCC1CC(=O)OC (configuration not stated) [METHYL JASMONATE]: 0.9
CC(=O)c1ccccc1N [2-AMINOACETOPHENONE]: 26.7
O=Cc1ccccc1 [BENZALDEHYDE]: 3.6
CCOC(=O)C1CCNCC1 [ETHYL ISONIPECOTATE]: 0
OCCc1ccccc1 [PHENYLETHYL ALCOHOL]: 9.5
c1cc(C2OCCO2)ccn1 [PYRIDINE, 4-(1,3-DIOXALAN-2-YL)]: 20.4
ClC(Cl)Cl [CHLOROFORM]: 10.1
CC(=O)/C=C/C1=C(C)CCCC1(C)C [BETA-IONONE]: 3.8
CCOC(=O)c1ccccc1N [ETHYL ANTHRANILATE]: 0.6
CCOC(=O)c1cccnc1 [ETHYL NICOTINATE]: 84.8
CC(=O)c1ccncc1 [METHYL 4-PYRIDYLKETONE]: 10.3
COC(=O)c1ccncc1 [METHYL ISONICOTINATE]: 5.1
COc1ccc(C=O)cc1 [ANISALDEHYDE]: 22.6
CCOC(=O)c1ccccc1 [ETHYL BENZOATE]: 24.8
CCCOC(=O)c1ccncc1 [N-PROPYL ISONICOTINATE]: 0
OCCc1ccncc1 [4-(2-HYDROXYETHYL)PYRIDINE]: 0
COC(=O)c1ccccc1N [METHYL ANTHRANILATE]: 22.1
CCCCCCCCCCOC(=O)c1ccncc1 [N-DECYL ISONICOTINATE]: 0
CCOC(=O)c1ccccn1 [ETHYL PICOLINATE]: 5.9

---

- Tested on: Thrips tabaci
- measurementDescription: Thrips luring activity against female Thrips tabaci (onion thrips) assessed as ratio of thrips in baited traps to unbaited traps during field trapping study
- Type: functional
endpoint: Ratio

CC(C)OC(=O)c1ccncc1 [ISOPROPYL ISONICOTINATE]: 8.8
CCCCCCCCCCOC(=O)c1ccncc1 [N-DECYL ISONICOTINATE]: 6.8
CCOC(=O)c1ccccc1 [ETHYL BENZOATE]: 2.1
CC(=O)/C=C/C1C(C)=CCCC1(C)C (configuration not stated): 1.3
O=Cc1ccccc1O: 1.9
COC(=O)c1ccncc1 [METHYL ISONICOTINATE]: 18.9
CCOC(=O)c1ccnc(Cl)c1 [ETHYL-2-CHLOROPYRIDINE-4-CARBOXYLATE]: 1.7

---

- Test system: Thrips obscuratus
- measurementDescription: Thrips luring activity against female New Zealand Thrips obscuratus (flower thrips) assessed as ratio of thrips in baited traps to unbaited traps during field trapping study
- Assay type: functional
Entries annotated with measured Ratio
endpoint: Ratio

COC(=O)c1ccccc1N [METHYL ANTHRANILATE]: 28.3
CC(=O)c1ccncc1: 0
CCOC(=O)C1CCNCC1 [ETHYL ISONIPECOTATE]: 0
CC(C)OC(=O)c1ccncc1 [ISOPROPYL ISONICOTINATE]: 9
CCOC(=O)c1ccccn1 [ETHYL PICOLINATE]: 4.1
O=Cc1ccccc1O: 20.7
CCCCCCCCCCOC(=O)c1ccncc1 [N-DECYL ISONICOTINATE]: 14.9

---

- Tested on: Thrips obscuratus
- measurementDescription: Thrips luring activity against female New Zealand Thrips obscuratus (flower thrips) assessed as ratio of thrips in baited traps to unbaited traps during field trapping study
- Format: functional
Labelling: Ratio reported below 20 becomes Fulfilled; at or above becomes Not fulfilled.

COc1ccc(C=O)cc1 [ANISALDEHYDE]: Not fulfilled
COC(=O)c1ccncc1 [METHYL ISONICOTINATE]: Not fulfilled
CC(=O)/C=C/C1=C(C)CCCC1(C)C [BETA-IONONE]: Fulfilled
CCOC(=O)c1ccccc1 [ETHYL BENZOATE]: Not fulfilled
CCOC(=O)c1ccnc(Cl)c1 [ETHYL-2-CHLOROPYRIDINE-4-CARBOXYLATE]: Fulfilled
OCCc1ccncc1 [4-(2-HYDROXYETHYL)PYRIDINE]: Fulfilled
CC/C=C\CC1=C(C)CCC1=O [CIS-JASMONE]: Not fulfilled
CC(=O)/C=C/C1C(C)=CCCC1(C)C (stereo not drawn) [ALPHA-IONONE]: Fulfilled
c1cc(C2OCCO2)ccn1 [PYRIDINE, 4-(1,3-DIOXALAN-2-YL)]: Fulfilled
N#Cc1ccncc1 [ISONICOTINONITRILE]: Fulfilled
CCCCCCOC(=O)c1ccncc1 [ISONICOTINIC ACID HEXYL ESTER]: Fulfilled
CC(=O)c1ccccc1N [2-AMINOACETOPHENONE]: Not fulfilled
CC/C=C\CC1C(=O)CCC1CC(=O)OC (stereo not given) [METHYL JASMONATE]: Fulfilled
ClC(Cl)Cl [CHLOROFORM]: Fulfilled
CCOC(=O)c1cccnc1 [ETHYL NICOTINATE]: Not fulfilled
COC(=O)c1ccccc1O [METHYL SALICYLATE]: Not fulfilled
OCCc1ccccc1 [PHENYLETHYL ALCOHOL]: Fulfilled
CCOC(=O)c1ccccc1O [ETHYL SALICYLATE]: Not fulfilled
CCC(=O)c1ccncc1 [ETHYL 4-PYRIDYLKETONE]: Fulfilled
COC(=O)c1ccccc1 [METHYL BENZOATE]: Not fulfilled
CCOC(=O)c1ccccc1N [ETHYL ANTHRANILATE]: Fulfilled
CCCOC(=O)c1ccncc1 [N-PROPYL ISONICOTINATE]: Fulfilled
CCOC(=O)c1ccncc1 [ETHYL ISONICOTINATE]: Not fulfilled
O=Cc1ccccc1 [BENZALDEHYDE]: Fulfilled
O=Cc1ccncc1 [4-FORMYLPYRIDINE]: Fulfilled

---

- Test system: Thrips tabaci
- measurementDescription: Thrips luring activity against female Thrips tabaci (onion thrips) assessed as ratio of thrips in baited traps to unbaited traps during field trapping study
- Type: functional
Entries annotated with measured Ratio
endpoint: Ratio

CCCCCCOC(=O)c1ccncc1: 1.2
COC(=O)c1ccccc1N [METHYL ANTHRANILATE]: 3.5
CC(=O)c1ccncc1: 7.6
CCOC(=O)c1ccncc1 [ETHYL ISONICOTINATE]: 30.8
O=Cc1ccncc1: 1.6
OCCc1ccccc1: 3.8
c1cc(C2OCCO2)ccn1: 5.3
COC(=O)c1ccccc1 [METHYL BENZOATE]: 6.6
COC(=O)c1ccccc1O [METHYL SALICYLATE]: 4
CCOC(=O)c1cccnc1 [ETHYL NICOTINATE]: 3.1
ClC(Cl)Cl [CHLOROFORM]: 1.1
CC/C=C\CC1C(=O)CCC1CC(=O)OC (stereo not given) [METHYL JASMONATE]: 0.7
CCC(=O)c1ccncc1: 13.5
CCOC(=O)C1CCNCC1 [ETHYL ISONIPECOTATE]: 4
OCCc1ccncc1 [4-(2-HYDROXYETHYL)PYRIDINE]: 1.3
CC(=O)c1ccccc1N: 6
CCOC(=O)c1ccccc1O [ETHYL SALICYLATE]: 3
CCOC(=O)c1ccccn1 [ETHYL PICOLINATE]: 2.8
CC/C=C\CC1=C(C)CCC1=O [CIS-JASMONE]: 1.2
O=Cc1ccccc1: 4
CCOC(=O)c1ccccc1N [ETHYL ANTHRANILATE]: 1.1
CC(=O)/C=C/C1=C(C)CCCC1(C)C: 2.6
CCCOC(=O)c1ccncc1 [N-PROPYL ISONICOTINATE]: 15.4
COc1ccc(C=O)cc1: 4
N#Cc1ccncc1: 2.4

Recorded values, source ChEMBL document CHEMBL3046205.
